tested on: MS2 coat protein; experiment: apparent KD of MS2 coat protein, switch ON state; designed switch direction (-1 OFF switch, 1 ON switch): -1; higher = weaker reporter binding; settings: FMN input: 0 or 200 uM; Eterna round: R93 (includes R88 designs)
apparent KD of MS2 coat protein listing for selected sequences.
Quick reminder: number only, in nM, skip the unit.

See these solved cases before continuing.
>  <sequence-content>
AAAACGGUAGGAUAUACGAAAAAAAAGGGAGAACAAAAGGGACAUGAGGAUCACCCAUGUAGAAGGACCAAAAA [Diamond 89]

>  <measurement-unit>
nM

>  <apparent KD of MS2 coat protein>
40.6

$$$$
>  <sequence-content>
AAGAAAGGAGGAUAUACAUGAGGAUCACCCAUGUAAAAGAAAGAAGGGAAAGAGAAAAGUAGAAGGCCUAAGAA [Wahibre Psamtik I]

>  <measurement-unit>
nM

>  <apparent KD of MS2 coat protein>
32.7

$$$$
>  <sequence-content>
AGCUAGACAGGAUAUACGAACAUGUCAAAAGACGUAAGGGAACAUGAGGAUCACCCAUGUAGAAGGGUCUAGCA [Diamond 50]

>  <measurement-unit>
nM

>  <apparent KD of MS2 coat protein>
28.5

$$$$
>  <sequence-content>
AAAAAGUGAGGAUAUGUCAAAAGUCACAAAAGUGACAAAAGACAGAAGGCACAUGAGGAUCACCCAUGUGAAAA [Mod of Eli - Late G + early G segment 3]

>  <measurement-unit>
nM

>  <apparent KD of MS2 coat protein>
26.8

$$$$
>  <sequence-content>
AAGAAUGGAGGAUAUACAUGAGGAUCACCCAUGUAAAAGAAAGAGGGAAAAGAGAAAAGUAGAAGGCCAAAGAA [Ptolemy VII Neos Philopator]

>  <measurement-unit>
nM

>  <apparent KD of MS2 coat protein>
36

$$$$

Query: apparent KD of MS2 coat protein; subject: GGUUGUCGAGGAUAUACAUGAGGAUCACCCAUGUGAGAGAAAAAAGUGAGAAAGAAAAGUAGAAGGCGAUGACG [salish99-ex3-58]
38.2

What does the data say about its apparent KD of MS2 coat protein? Entry: AGUAGUACAGGAUAUACAUGAGGAUCACCCAUGUGAAAAGAAAGUGGCGUACCACAAAGUAGAAGGGUACUACA [Mat - Exclusion 3 - JL mod - D34]
33.7

What value of apparent KD of MS2 coat protein has been reported for the following sequence? AACAGUACAGGAUAUACAUGAGGAUCACCCAUGUGAGAAUUAAGUGGAGAACCACAAAGUAGAAGGGUACUGGA [Mat - Exclusion 3 - JL mod - D2]
37.1

What value of measured apparent KD of MS2 coat protein is listed for AAGAAAGUAGGAUAUACAAGGAAGAAAGAAAAGAAAAGAAAACAUGAGGAUCACCCAUGUAGAAGGACUUAGAA [EteRNA is fun!] ?
27.5

Tell me the measured apparent KD of MS2 coat protein of AAAAAACAUGAGGAUCACCCAUGUCAGGAUAUCCUAAAGAAACUCGUAAAAAGAAAUAGGAGAAGGGACAAAAA [PK4] , please.
53.7

---

Entries and their apparent KD of MS2 coat protein values follow.
tested on: MS2 coat protein; assay: apparent KD of MS2 coat protein; designed switch direction (-1 OFF switch, 1 ON switch): -1; higher = weaker reporter binding; details: input ligand: FMN 200 uM
Write it as a number; the unit nM goes unstated.

Use the examples below as a reference point.
>  <sequence-content>
CUAAAUCAUGUAGGAUAUGCGUGGCAAAGCUAUGCAGAAGGACAUGAGGAUCACCCAUGUCAUUCCGUCUGAGAACAGACGGGA [Mat - Exclusion NG 1 - Mod of JL - D51] (Eterna round: R96, puzzle: Exclusion NG 1)

>  <apparent KD of MS2 coat protein / nM>
172

$$$$
>  <sequence-content>
AACAAGGUAGGAUAUACAUGAGGAUCACCCAUGUCCCACCCGUUACCUAUGACCAUAUGUAGAAGGACCAAUAA [Exy#6] (Eterna round: R97, puzzle: Exclusion 3)

>  <apparent KD of MS2 coat protein / nM>
16.7

$$$$
>  <sequence-content>
CGAGACGGAGGAUAUACAUGAGGAUCACCCAUGUUAAACCACGGGUAGCCUUCGGUCGGUAGAAGGCCGCAUCG [Eternabot (Original) Solution 47] (Eterna round: R97, puzzle: Exclusion 3)

>  <apparent KD of MS2 coat protein / nM>
86.7

$$$$

Note: attention shifts to another entry.
Endpoint output: apparent KD of MS2 coat protein of GAUCACUGAGGAUAUACACAGAUACAAAGUAUCUGACCGUGACAUGAGGAUCACCCAUGUAGAAGGCAGAGGUC [Omei Ex2 B1] (Eterna round: R97, puzzle: Exclusion 2) . Value?
384
